Tested on: ACHN renal
assay summary: NCI tumour cell line growth inhibition, 48 h
Recorded TGI for the following compounds

compound	TGI
C/C1=C\C/C=C(\C)[C@H]2CC(CC/C(C)=C/CC1)[C@](C)(C=O)O2	> 100 µM
COc1ccc(C(=O)C(C(=O)C(=O)Nc2nccs2)c2ccc(OC)cc2)cc1 (stereo not given)	> 100 µM
COc1ccc(Cl)cc1NC(=O)c1cccc([N+](=O)[O-])c1O	> 70.4 µM
COc1ccc(CC(NC(=O)[C@H](C)NC(=O)CN2CCOCC2)C(=O)N[C@@H](Cc2ccccc2)C(=O)[C@@]2(C)CO2)cc1 (stereo not given in full)	> 33.5 µM
COC(=O)c1ccccc1C1CN=NC12Cc1cc(C)c(C)cc1C2=O (stereo not given)	> 100 µM

---

Tested on: HS 578T breast
assay summary: NCI tumour cell line growth inhibition, 48 h

compound	TGI
C1=CC(=[N+]2N=C(c3ccccc3)CC2c2ccccc2)C=CC1=C1SC(c2ccccc2)(c2ccccc2)c2ccccc21 (configuration not stated)	> 100 µM
Cc1cc(C)n(C(=O)c2nn(-c3ccc(Cl)cc3)cc2O)n1	> 100 µM
Cn1c2ccccc2c2nc3ccccc3c(Cl)c21	> 100 µM
CCCN1C(=O)CSC1=Nc1ccc2cc3ccc(N=C4SCC(=O)N4CCC)cc3nc2c1	> 100 µM
O=c1c2ccccc2[nH]c(=S)n1-c1ccc(N=Nc2cccc3cc(O)ccc23)cc1	> 100 µM
Cc1cccc2c1O/C(=C\c1ccc([N+](=O)[O-])o1)C2=O	> 25 µM
CCSC1=N/C(=C/c2ccccc2O)C(=O)N1	> 100 µM
CC(=O)C(=[N+]=[N-])C(=O)OCCOC(=O)C(=[N+]=[N-])C(C)=O	> 1 µM
C[C@]12C3CC[C@@]4(CO)C[C@]3(CCC1[C@](C)(C(=O)O)CC[C@@H]2O)CC4=O (some centres not stated)	> 100 µM
COc1cc2ccc1OCc1cccc(n1)COc1ccc(cc1OC)C=Nc1ccc(cc1)-c1ccc(cc1)N=C2	> 100 µM
COc1cc(C2=NN(c3ccc(S(N)(=O)=O)cc3)C(c3ccc(Cl)cc3)C2)cc(OC)c1OC (configuration not stated)	> 100 µM
COc1cc(NCC2COc3c(ccc(OC)c3OC)C2=O)c([N+](=O)[O-])cc1OC (configuration not stated)	> 100 µM

---

Test system: EKVX NSCLC
assay summary: NCI tumour cell line growth inhibition, 48 h

molecule	TGI
Nc1nc(NCC2(CO)CCC2)cc(=O)[nH]1	> 100 µM
Cc1nc2ncn3c(c-2c1Cc1ccccc1)NC=C(O)N3	> 100 µM
CCc1cccc(CC)c1NC(=O)C1=C(C)NC(C)=C(C(=O)Nc2c(CC)cccc2CC)C1c1ccc2c(c1)OCO2	38.3 µM
COC(=O)C1ON2C(C1C(=O)OC)C(C)(C)N(O)C2(C)C (stereo not given)	> 10 µM
Cc1[nH]nc2c1C(=O)C=C(N(CCO)c1ccccc1)C2=O	> 100 µM
